Source of measurements: paper PMC12299890

# Protocol Description: Serum concentration and pharmacokinetics of SCI after oral gavage in Wistar rats
# Assay type: in vivo, Wistar rat
# Reported Conditions: male, Wistar, rat, serum, po, 10 mg/kg, Mean of rats 1–3 ± SEM; serum; oral 10 mg/kg; read-out: K (elimination rate constant) (converted)
Assay Endpoint: k el

{"Molecule": "O[C@H]1[C@H](O)[C@@H](O)[C@H](O)[C@@H](O)[C@@H]1O [SCI, scyllo-inositol]", "Recorded Measurement": "0.000237 s⁻¹"}

====

# Protocol Description: Serum concentration and pharmacokinetics of SCI after oral gavage in Wistar rats
# Format: in vivo, Wistar rat
# Reported Conditions: male, Wistar, rat, serum, po, 10 mg/kg, Rat No 6; oral 10 mg/kg
Assay Endpoint: Tmax (h)

{"Compound String": "O[C@H]1[C@H](O)[C@@H](O)[C@H](O)[C@@H](O)[C@@H]1O", "Assay Endpoint": "Tmax", "Recorded Measurement": 2}
